Target: iron-based NHase from Rhodococcus erythropolis AJ270 (Rhodococcus erythropolis, UniProt P13448)
Construct: purchased Prozomix Limited
Sequence (P13448 whole entry): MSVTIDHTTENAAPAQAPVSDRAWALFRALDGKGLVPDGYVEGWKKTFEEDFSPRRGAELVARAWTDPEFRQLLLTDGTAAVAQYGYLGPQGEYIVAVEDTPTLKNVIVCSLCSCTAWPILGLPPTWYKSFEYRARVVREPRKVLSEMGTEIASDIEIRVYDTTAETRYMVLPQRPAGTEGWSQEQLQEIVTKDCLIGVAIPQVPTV
Sequence (P13449 whole entry partner): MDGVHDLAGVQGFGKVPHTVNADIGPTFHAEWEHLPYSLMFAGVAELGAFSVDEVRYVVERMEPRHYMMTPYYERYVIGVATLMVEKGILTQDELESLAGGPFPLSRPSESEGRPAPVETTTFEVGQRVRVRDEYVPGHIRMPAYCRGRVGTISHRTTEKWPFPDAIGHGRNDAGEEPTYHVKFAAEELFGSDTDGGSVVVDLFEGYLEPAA
Test: Enzymatic inhibition of nitrile hydratase (NCTB conversion, 412 nm)
Type: biochemical
Settings: [B]/[Dimedone] = 1.0 mM; nmol thiolate product per minute per mg freeze-dried NHase powder
readout: Activity (nmol/min/mg)
Numbers only; they are read as nmol/min/mg.

Look up and state reported Activity for OB(O)c1ccccc1
1.006

Look up and state reported Activity for OB(O)c1cccc(Br)c1
0.903

Look up and state reported Activity for CC1(C)CC(=O)CC(=O)C1 [Dimedone, 5,5-dimethyl-1,3-cyclohexanedione, reference compound]
0.406

Look up and state reported Activity for OB1OCc2ccccc21
0.826
